Data origin: the supplement of paper PMC7877785

assay: self-splicing fitness, log relative to wild type (ln ratio); higher = more splicing; Tetrahymena group I intron in knt gene, E. coli kanamycin selection, DiMSum; sequences stand for … in CUCUCU…GGAGGGAAAAGUUAUCAGGCAUGCACCUGGUAGCUAGUCUUUAAACCAAUAGAUUGCAUCGGUUUAAAAGGCAAGACCGUCAAAUUGCGGGAAAGGGGUCAACAGCCGUUCAGUACCAAGUCUCAGGGGAAACUUUGAGAUGGCCUUGCAAAGGGUAUGGUAAUAAGCUGACGGACAUGGUCCUAACCACGCAGCCAAGUCCUAAGUCAACAGAUCUUCUGUUGAUAUGGAUGCAGUUCACAGACUAAAUGUCGGUCGGGGAAGAUGUAUUCUUCUCAUAAGAUAUAGUCGGACCUCUCCUUAAUGGGAGCUAGCGGAUGAAGUGAUGCAACACUGGAGCCGCUGGGAACUAAUUUGUAUGCGAAAGUAUAUUGAUUAGUUUUGGAGUACUCGUGGUCG; details: 37 °C;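 note: selection with 25 µg/mL kanamycin versus none on LB agar overnight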
Some sequences, each annotated with its measured self-splicing fitness (ln).

| seq-text | self-splicing fitness (ln) |
| --- | --- |
| AAACAGCAAUAUUACGUACG | -0.985 |
| CAAUAGCAAUAUUACGUCGC | -2.56 |
| GAUAAGCAAUAUUACGACAG | -1.89 |
| CCGUAGCAAUAUUACGGAGU | -2.33 |
| CCAUAGCAAUAUUACGGACA | -1.14 |
| UUACAGCAAUAUUACGGCCG | -0.389 |
| ACUGAGCAAUAUUACGGAGU | -1.78 |
| GCUUAGCAAUAUUACGCUCG | -0.0325 |
| GAAUAGCAAUAUUACGUUCA | -0.336 |
| UGUGAGCAAUAUUACGGACA | 0.089 |
| CCGAAGCAAUAUUACGCUAA | -2.7 |
| AUUAAGCAAUAUUACGACCU | 0.145 |
| GUACAGCAAUAUUACGUGUG | -1.45 |
| GCACAGCAAUAUUACGAGAU | -0.678 |
| CUGCAGCAAUAUUACGCUCG | -0.671 |
| CGCUAGCAAUAUUACGUUUC | -2.23 |
| CGUAAGCAAUAUUACGGGCG | -1.12 |
| GGAAAGCAAUAUUACGACGC | 0.595 |
| CACUAGCAAUAUUACGGAUU | -2.28 |
| GUAAAGCAAUAUUACGCUGG | -0.981 |
| UAGGAGCAAUAUUACGCCAU | -2.72 |
| AAUGAGCAAUAUUACGUCUA | -1.59 |
| AUAAAGCAAUAUUACGCCAA | -0.34 |
| CAGAAGCAAUAUUACGCGUG | -2.62 |
| GGGGAGCAAUAUUACGGAAC | -2.95 |
| AUAUAGCAAUAUUACGCAAG | -0.955 |
| GAUCAGCAAUAUUACGAGGG | -2.17 |
| GUUCAGCAAUAUUACGUGGC | -2.25 |
| GGGCAGCAAUAUUACGCAGA | -0.514 |
| UAAAAGCAAUAUUACGGUUA | 0.222 |
| UGGAAGCAAUAUUACGGGGU | -1.99 |
| UGACAGCAAUAUUACGUUGC | -2.89 |
| UAAGAGCAAUAUUACGUAAG | -2.1 |
| CUCGAGCAAUAUUACGGAUA | -3.68 |
| GCUUAGCAAUAUUACGGUAU | -1.15 |
| GGAUAGCAAUAUUACGCCCU | -2.27 |
| CAACAGCAAUAUUACGCUUU | -2.54 |
| CUAGAGCAAUAUUACGGGGG | -1.11 |
| CCUUAGCAAUAUUACGGGUC | -2.86 |
| GCAAAGCAAUAUUACGGAUU | -0.799 |
| AAGUAGCAAUAUUACGCCUU | -1.01 |
| UUGCAGCAAUAUUACGUUCU | -0.872 |
| CUUAAGCAAUAUUACGUAUA | -3.19 |
| CACAAGCAAUAUUACGGGCU | -2.29 |
| UUUGAGCAAUAUUACGACUU | -2.28 |
| CUUCAGCAAUAUUACGCAGG | -2.07 |
| CCAAAGCAAUAUUACGCCCU | -3.01 |
| GCGCAGCAAUAUUACGAGUA | -0.845 |
| CGGAAGCAAUAUUACGGGGU | -3.41 |
| ACGGAGCAAUAUUACGUCCG | -2.36 |
| GUCUAGCAAUAUUACGGCGC | 0.985 |
